Molecular target: PDGF-Ra (Homo sapiens, UniProt P16234)
Construct: host or cells: G-292 human osteosarcoma cells
Sequence (P16234 24-1089): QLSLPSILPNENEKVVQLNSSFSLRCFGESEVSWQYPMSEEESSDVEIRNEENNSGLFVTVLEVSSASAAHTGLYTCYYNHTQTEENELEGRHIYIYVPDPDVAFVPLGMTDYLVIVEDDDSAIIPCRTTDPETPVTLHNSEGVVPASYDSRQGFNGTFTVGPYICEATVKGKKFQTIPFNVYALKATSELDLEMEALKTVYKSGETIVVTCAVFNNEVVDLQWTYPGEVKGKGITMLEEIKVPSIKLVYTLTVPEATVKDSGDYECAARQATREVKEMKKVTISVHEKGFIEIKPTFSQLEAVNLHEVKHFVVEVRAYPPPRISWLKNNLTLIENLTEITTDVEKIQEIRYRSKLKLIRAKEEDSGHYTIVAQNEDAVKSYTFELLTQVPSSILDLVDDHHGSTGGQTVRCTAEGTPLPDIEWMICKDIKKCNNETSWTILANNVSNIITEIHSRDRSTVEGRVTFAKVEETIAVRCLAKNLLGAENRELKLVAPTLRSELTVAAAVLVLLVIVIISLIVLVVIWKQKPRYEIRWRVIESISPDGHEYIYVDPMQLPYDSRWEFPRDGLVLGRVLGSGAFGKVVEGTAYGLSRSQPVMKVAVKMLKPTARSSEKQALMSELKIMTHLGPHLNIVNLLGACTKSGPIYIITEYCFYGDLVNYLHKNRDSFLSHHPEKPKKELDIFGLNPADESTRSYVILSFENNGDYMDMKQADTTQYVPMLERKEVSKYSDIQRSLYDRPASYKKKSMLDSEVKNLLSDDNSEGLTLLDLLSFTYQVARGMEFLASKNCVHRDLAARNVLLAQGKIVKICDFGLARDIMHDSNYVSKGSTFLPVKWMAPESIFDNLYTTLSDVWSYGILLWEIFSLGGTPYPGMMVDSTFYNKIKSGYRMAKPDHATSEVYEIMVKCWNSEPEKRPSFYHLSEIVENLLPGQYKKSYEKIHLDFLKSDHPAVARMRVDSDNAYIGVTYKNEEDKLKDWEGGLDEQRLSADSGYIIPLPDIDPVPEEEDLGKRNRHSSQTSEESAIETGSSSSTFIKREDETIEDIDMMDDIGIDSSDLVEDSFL
Test: Inhibitory activity against PDGF-Ra phosphorylation by PDGF-AA stimulation using G292
Assay type: cell-based
Details: > means inhibition at indicated concentration not more than 50%, < and << not less than 50%; read-out: PDGF (E) IC50
Protocol: Measurement of Inhibitory Activity Against PDGF-Ra Phosphorylation by PDGF-AA Stimulation Using G292 […] This solubilized cell solution was transferred to a 96-well plate coated with aniti-phosphotyrosine antibody PY-20, and a reaction was allowed to proceed at 4° C. overnight. […] Color development was carried out using a color development kit for peroxidase (Sumitomo Bakelite Co., Ltd.), and the absorbance was measured at 450 nm.
Please note: IC50 exactly at 20 nM is no. Only values below 20 nM get yes.

Record excerpt, results attached:
COc1cc2ncnc(Oc3ccc(NC(=S)NC(=O)c4cccc(F)c4)cc3)c2cc1OC [Example 1164]: yes
COc1cc2ncnc(Oc3ccc(NC(=S)NC(=O)CCc4cccc(C)c4)cc3)c2cc1OC [Example 1185]: yes
COc1cc2ncnc(Oc3ccc(OCC(=O)N4CCc5ccccc5C4)cc3)c2cc1OC [Example 802]: yes
CCCCN(CCCC)CCNC(=O)Nc1ccc(Oc2ccnc3cc(OC)c(OC)cc23)cc1OC [Example 689]: no

Exercise: IC50 strictly < 20 nM for this compound? COc1cc2ncnc(Oc3ccc(NC(=O)OC4CCCCC4)c([N+](=O)[O-])c3)c2cc1OC [Example 503]
Solution: no

Exercise: IC50 strictly < 20 nM for this compound? COc1cc2nccc(Oc3ccc(NC(=S)NC(=O)Cc4cccs4)c(C)c3)c2cc1OC [Example 700]
Solution: no

Exercise: IC50 strictly < 20 nM for this compound? COc1cc2nccc(Oc3ccc(NC(=S)NC(=O)C4(C)CC4(Cl)Cl)cc3Cl)c2cc1OC (centres unmarked) [Example 750]
Solution: yes

Exercise: IC50 strictly < 20 nM for this compound? COc1cc2nccc(Oc3ccc(NC(=S)NC(=O)C(OC)c4ccccc4)cc3)c2cc1OC (centres unmarked) [Example 761]
Solution: no

Exercise: IC50 strictly < 20 nM for this compound? CCN(CCNC(=S)Nc1cc(C)c(Oc2ccnc3cc(OC)c(OC)cc23)cc1C)c1ccccc1C [Example 540]
Solution: no

Exercise: IC50 strictly < 20 nM for this compound? COc1cc2nccc(Oc3ccc(OCCCOc4ccc(F)cc4)cc3)c2cc1OC [Example 798]
Solution: yes

Exercise: IC50 strictly < 20 nM for this compound? COc1cc2ncnc(Oc3ccc(NC(=O)NCCN(C(C)C)C(C)C)cc3)c2cc1OC [Example 656]
Solution: yes

Exercise: IC50 strictly < 20 nM for this compound? COc1cc2nccc(Oc3ccc(NC(=S)NC(=O)N4CCOCC4)cc3Cl)c2cc1OC [Example 1052]
Solution: no

Exercise: IC50 strictly < 20 nM for this compound? COC(=O)COc1ccc(Oc2ncnc3cc(OC)c(OC)cc23)cc1 [Example 774]
Solution: no

Exercise: IC50 strictly < 20 nM for this compound? CCN(CC)C(=O)NC(=S)Nc1ccc(Oc2ccnc3cc(OC)c(OC)cc23)cc1 [Example 1041]
Solution: yes

Exercise: IC50 strictly < 20 nM for this compound? CCN(CCNC(=S)Nc1ccc(Oc2ccnc3cc(OC)c(OC)cc23)c(C)c1C)c1ccccc1C [Example 544]
Solution: yes

Exercise: IC50 strictly < 20 nM for this compound? COc1cc2nccc(Oc3ccc(NC(=O)ON4C(=O)c5ccccc5C4=O)cc3)c2cc1OC [Example 416]
Solution: no
